All figures here come from paper PMC3793977.

# ASSAYED_TARGET: full-length NS3/4A genotype 1b mutant A156S (Hepatitis C virus genotype 1b, UniProt Q9WMX2, A1182S)
# Construct: wild-type HCV NS3 (HCV polyprotein residues 1027–1657); His-tag (N)
# METHOD_DESCRIPTION: Inhibition assay with drug-resistant mutant A156S
ATTRIBUTE_MEASURED: IC50

Annotate the compound Cc1cc(NC(=O)Cc2csc(NS(=O)(=O)c3ccccc3)n2)ccc1Br with its measured IC50.
≤ 20 µM

====

Each entry below lists one item and its recorded Ki value.
# ASSAYED_TARGET: full-length NS3/4A (Hepatitis C virus genotype 1b, UniProt Q9WMX2)
# Construct: wild-type HCV NS3 (HCV polyprotein residues 1027–1657); His-tag (N); made in house
# METHOD_DESCRIPTION: Type (mechanism) of enzyme inhibition, kinetic analysis
# Assay type: biochemical
# ASSAY_CONDITIONS: competitive model, with respect to substrate
Quick reminder: number only, in µM, skip the unit.

{"COMPOUND": "Cc1cc(NC(=O)Cc2csc(NS(=O)(=O)c3ccccc3)n2)ccc1Br [Compound 12]", "Ki [µM]": 3.5}

Note: attention shifts to another entry.
Annotate the compound CC(C)C(=O)N1CCc2ccc(NC(=O)COc3ccc(F)cc3)cc2C1 [Compound 13] with its measured Ki.
19.1
